# reported cytotoxicity at 70.5 h; entries follow
Experiment: Human HepG2 cell viability assay in 384 well format
Assay type: toxicity, cell-based
Parameters: dose 125 nL, time 70.5 hour; concentration not given beside the values
Conditions: HepG2 cells, read-out: Inhibition
Reply with the number, then its unit.

Dear colleague, I am looking for the recorded cytotoxicity at 70.5 h of the following compound: `CCN1CCN(C)C(=O)C12CCN(Cc1ccsc1)CC2`
-13%

Also Cc1nn(-c2ccccc2)cc1C(=O)N1CCCC(n2ccnc2)C1 (stereo not given) ?
-0.753%

Also Cc1ncnc(NCC(C)N(C)c2ccccc2)c1C (stereo not given) , if possible.
29.1%

For `COc1ccc(-c2cc(C3CCNCC3)ccn2)cc1` then?
-4.77%

Can you handle c1cnn(CC2CCCN2c2ncnc3sccc23)c1 (stereo not given) next?
31.2%

Queued: Cn1cc(CN2CCCC(CCc3c(F)cccc3F)C2)cn1 (stereo not given)
1.58%

And for `O=C(c1cccnc1)N1CCn2nnc(COc3cccnc3)c2C1` ?
-3.89%

---

Experiment: Human HepG2 cell viability assay in 384 well format
Assay type: toxicity, cell-based
Design: dose 125 nL, time 70.5 hour; concentration not given beside the values
Conditions: HepG2 cells, read-out: Inhibition
Outcome Measure: cytotoxicity at 70.5 h (%)
Your answer is read as %, so omit the unit and give the number.

Molecule	cytotoxicity at 70.5 h, %
c1cnc(N2CCC3(CCN(Cc4ccncc4)CC3)CC2)nc1	-15.7
CN1CCN(S(C)(=O)=O)c2ccc(F)cc21	-11.1
Cc1nc([C@@H]2C[C@H]3CN(Cc4ccc5c(c4)OCO5)C[C@H]3O2)no1	-10.1
CCc1ccccc1OC1CN(C(=O)c2ccsc2)C1	-3.52
CCN1C(=O)C2(CCOCC2)c2cc(NC(=O)c3cc(C)n[nH]3)ccc21	-3.02

Given `CN(CCC(=O)N1CCc2sccc2C1)Cc1cc(Br)cs1` , state its recorded cytotoxicity at 70.5 h.
-4.84

Proceed to `c1ccc2c(N3CCCCC3)cnnc2c1`
-6.45

Now consider `O=C(Cc1ccc2c(c1)CCO2)N1CCN(c2ccncc2)CC1` .
6.77

Request: `NC(=O)C1CCN(CCCNC(=O)Nc2nccs2)CC1`
-25.9

Could you do the same for `CN(C)CCN1CCN(C(=O)c2ccn(C)c(=O)c2)CC1` , please?
-11.6

Please give the result for CN(C)CC1CN(Cc2coc(-c3ccccc3Cl)n2)CCO1 (configuration not stated) too.
7.1

# iterate: `CNC(=O)N1CCc2nc(C(=O)NCc3cccc(OC)c3)sc2CC1`
18

---

Assay: Human HepG2 cell viability assay in 384 well format
Format: toxicity, cell-based
Parameters: dose 125 nL, time 70.5 hour; concentration not given beside the values
Settings: HepG2 cells, read-out: Inhibition
Outcome Measure: cytotoxicity at 70.5 h
Entry format: amount then unit.

Solved entries:
Molecule	Outcome Measure	Value
CCc1nc(CN2CC(C(=O)OC)O[C@H](C)C2)cs1 (some centres undefined)	cytotoxicity at 70.5 h	-8.81%
Cc1ccc(CC(=O)N2CCN(CC(O)c3ccccc3)CC2)cn1 (centres undefined)	cytotoxicity at 70.5 h	1.06%
CC(=O)N1CCC(n2nccc2-c2cnc(N(C)CCO)nc2)CC1	cytotoxicity at 70.5 h	-6.31%
O=c1[nH]c2ccccc2cc1CNCCCN1CCOCC1	cytotoxicity at 70.5 h	-1.38%
O=C(Nc1cc(F)ccc1OCC1CCCO1)NC1CC1 (centres undefined)	cytotoxicity at 70.5 h	-8.4%

Would you kindly look at the next entry?
Query: cytotoxicity at 70.5 h; subject: `CC(C)(C)S(=O)(=O)CCNC(=O)NCCCc1cccc(F)c1`
29%

---

Test: Human HepG2 cell viability assay in 384 well format
Format: toxicity, cell-based
Set-up: dose 125 nL, time 70.5 hour; concentration not given beside the values
Conditions: HepG2 cells, read-out: Inhibition
Outcome Measure: cytotoxicity at 70.5 h (%)
Respond with the bare value in %.

Use these answered entries as a reference point.
Molecule	Unit String	cytotoxicity at 70.5 h
COc1cccc2cc(CNC(C)(C)C(=O)N3CCC(O)CC3)oc12	%	14.1
CCS(=O)(=O)Cc1nnnn1-c1ccccc1	%	-8.76
CN(Cc1noc(C(C)(C)C)n1)Cc1ccccc1N1CCCCC1	%	-6.13
CS(=O)(=O)N1Cc2ccccc2CC2(CCN(Cc3ccncc3)C2)C1 (stereo not given)	%	-9.23
NC(=O)CN1CCCC1c1csc(Nc2cnccn2)n1 (stereo not given)	%	-9.23
CNc1nc(C(=O)N2CCCC(COc3ccc(F)cc3)C2)cs1 (stereo not given)	%	3.44
COCCC(=O)N1CCC(c2nnc(-c3ccsc3)o2)CC1	%	-6.73
Cc1ccccc1C(C(=O)NCCN1CCC(CO)CC1)N(C)C (stereo not given)	%	-3
CNC(=O)N1CCC2(CC1)CNc1ccc(F)cc12	%	-5.44
CCC(NC(=O)NCC(=O)NC(C)C)c1cc(F)ccc1F (stereo not given)	%	-3.83

Tell me the measured cytotoxicity at 70.5 h of Clc1ccccc1OC1CCN(CC2CCOC2)CC1 (stereo not given) , please.
3.25

Please give the result for `CCCS(=O)(=O)NCc1nc(C)cc(N2CCCC2)n1` too.
-5.66

One more molecule: `O=S1(=O)CCN(c2nc(C3CC3)ns2)CC1`
-5.98

Try this molecule next: `Cc1nc(CN2CCc3nn(C)c(=O)cc3C2)oc1C`
-9.42

`Cc1nc(N2CCOCC2)nc2c1CCN(c1nccs1)CC2` ?
-5.03

---

Assay: Human HepG2 cell viability assay in 384 well format
Assay type: toxicity, cell-based
Design: dose 125 nL, time 70.5 hour; concentration not given beside the values
Conditions: HepG2 cells, read-out: Inhibition
Outcome Measure: cytotoxicity at 70.5 h (%)
Kindly answer with a numeric value in %, unit omitted.

Compound	Value
CC(=O)Nc1nc(C(=O)Nc2ccc(F)cc2)cs1	-4.84
O=C1CC(NS(=O)(=O)c2cccc(F)c2)CN1 (centres undefined)	5.76
O=C(NCCNC(=O)C1CCN(c2ncccn2)CC1)c1ccoc1	6.55
Cc1nn(C)c2cn(CC(=O)N3CCN(c4ccccn4)CC3)nc12	5.73
O=C(CCn1cccn1)N1CCC(c2nnc(-c3ccccn3)o2)CC1	3.01

Record request: cytotoxicity at 70.5 h value, item `CCOC(=O)CCNC(=O)c1cccc2ccc(C)nc12`
0.845

Also, `CN(Cc1ccco1)C[C@H]1OC[C@@H]2CCN(Cc3ccccn3)C[C@@H]21` please.
-8.48

Entry `COc1cc(N2C[C@H]3CN(CCN4CCCC4)C(=O)[C@H]3C2)ncn1` please
-7.36

Moving on to the next compound: `Cn1cc(Br)c(C(=O)NCCCn2cc(Cl)cn2)n1`
0.918

Then `Cc1c[nH]nc1C1CCN(C(=O)C2CCC2)CC1` ?
-8.63

Please give the result for `Cc1cnc(C)c(N2CCN(Cc3ccc(C)c(C)c3)CC2)n1` too.
3.81

Can you check CCc1noc(C(C)N2CCN(c3ccc(C#N)cn3)CC2)n1 (centres undefined) next?
-2.7

Query `CCN(C)C[C@@H]1CN(C(=O)c2cc(-c3ccc(F)cc3)n[nH]2)C[C@@H]1CO` next
-4.68

What do you have for `Cc1ccc(C(=O)N2CC(Oc3ccccc3C)C2)s1` ?
-12.1

What about this compound? `Cc1ncsc1CN1C[C@@H]2COC[C@]2(C(=O)NC2CC(F)(F)C2)C1`
-4.72

Entry O=C(CCOCC(F)(F)F)N1CCCC(n2ccnc2)C1 (centres undefined) please
-6.65

And the next one, `CN1CCC(NC(=O)NCCNc2ccccn2)CC1` ?
-13.1

Next record, please: `CN(C)c1cncc(C2CCN(CCO)CC2)n1`
-8.74

What do we get for `COc1ccc(CN2CCOC[C@H](Oc3cccnc3)C2)cc1` ?
4.36

Same question, `Cc1ccc(S(=O)(=O)Nc2ccc(=O)n(C)c2)c(Br)c1` this time
21.8

Consider next the compound `Cc1ccc(CNc2ccccc2-n2ccc(C)n2)nc1` in the same way.
8.61

Entry O=C(N1CCCC(n2cncn2)C1)C1(c2cccc(F)c2)CCC1 (centres undefined) please
-8.35

Field entry: CC(O)CCN(C)C(=O)Nc1cc(F)cc(Br)c1 (centres undefined)
1.72

Next compound: `Cc1ccc2c(c1)c(CNC(=O)C1CCN(C(C)C)CC1)nn2C`
-14.4

---

As shown below, each of these molecules has a reported cytotoxicity at 70.5 h value.
Test: Human HepG2 cell viability assay in 384 well format
Format: toxicity, cell-based
Set-up: dose 125 nL, time 70.5 hour; concentration not given beside the values
Settings: HepG2 cells, read-out: Inhibition
Answer with a number only, understood to be in %.

Molecule	Unit String	cytotoxicity at 70.5 h
COc1c(CNC2CCc3cc(F)ccc32)c(C)nn1C (stereo unspecified)	%	-15.1
Cc1ncsc1CNC(=O)N1CCN(Cc2ccccc2)CC1C (stereo unspecified)	%	-9.74
CCOc1ccc(Cl)c(C(=O)N2CCCC(N3CCCC3)C2)n1 (stereo unspecified)	%	-2.98

Request the reported cytotoxicity at 70.5 h associated with `Cc1nn(C)c(N(C)C)c1CNCc1ccc(OCCN(C)C)cc1`
22.3

Same read-out for `O=C(Cn1nc2c(cc1=O)CCCC2)N[C@@H](C(=O)O)c1ccccc1` ?
-3.48

Item: `CCN(CC)Cc1cc(=O)n2c(n1)CN(C(=O)c1ccc[nH]1)CCC2`
-4.87

Thanks! And `O=S(=O)(C1CC1)N1Cc2[nH]nc(COCC3CC3)c2C1` ?
-6.81

How about this molecule: CN(C)CC1(O)CCN(C(=O)c2ccc(-n3cnnc3)cc2Cl)C1 (stereo unspecified)
7.55
